# TARGET_DESC: DNA topoisomerase 2-alpha (Homo sapiens, UniProt P11388)
# Sequence (P11388 whole entry): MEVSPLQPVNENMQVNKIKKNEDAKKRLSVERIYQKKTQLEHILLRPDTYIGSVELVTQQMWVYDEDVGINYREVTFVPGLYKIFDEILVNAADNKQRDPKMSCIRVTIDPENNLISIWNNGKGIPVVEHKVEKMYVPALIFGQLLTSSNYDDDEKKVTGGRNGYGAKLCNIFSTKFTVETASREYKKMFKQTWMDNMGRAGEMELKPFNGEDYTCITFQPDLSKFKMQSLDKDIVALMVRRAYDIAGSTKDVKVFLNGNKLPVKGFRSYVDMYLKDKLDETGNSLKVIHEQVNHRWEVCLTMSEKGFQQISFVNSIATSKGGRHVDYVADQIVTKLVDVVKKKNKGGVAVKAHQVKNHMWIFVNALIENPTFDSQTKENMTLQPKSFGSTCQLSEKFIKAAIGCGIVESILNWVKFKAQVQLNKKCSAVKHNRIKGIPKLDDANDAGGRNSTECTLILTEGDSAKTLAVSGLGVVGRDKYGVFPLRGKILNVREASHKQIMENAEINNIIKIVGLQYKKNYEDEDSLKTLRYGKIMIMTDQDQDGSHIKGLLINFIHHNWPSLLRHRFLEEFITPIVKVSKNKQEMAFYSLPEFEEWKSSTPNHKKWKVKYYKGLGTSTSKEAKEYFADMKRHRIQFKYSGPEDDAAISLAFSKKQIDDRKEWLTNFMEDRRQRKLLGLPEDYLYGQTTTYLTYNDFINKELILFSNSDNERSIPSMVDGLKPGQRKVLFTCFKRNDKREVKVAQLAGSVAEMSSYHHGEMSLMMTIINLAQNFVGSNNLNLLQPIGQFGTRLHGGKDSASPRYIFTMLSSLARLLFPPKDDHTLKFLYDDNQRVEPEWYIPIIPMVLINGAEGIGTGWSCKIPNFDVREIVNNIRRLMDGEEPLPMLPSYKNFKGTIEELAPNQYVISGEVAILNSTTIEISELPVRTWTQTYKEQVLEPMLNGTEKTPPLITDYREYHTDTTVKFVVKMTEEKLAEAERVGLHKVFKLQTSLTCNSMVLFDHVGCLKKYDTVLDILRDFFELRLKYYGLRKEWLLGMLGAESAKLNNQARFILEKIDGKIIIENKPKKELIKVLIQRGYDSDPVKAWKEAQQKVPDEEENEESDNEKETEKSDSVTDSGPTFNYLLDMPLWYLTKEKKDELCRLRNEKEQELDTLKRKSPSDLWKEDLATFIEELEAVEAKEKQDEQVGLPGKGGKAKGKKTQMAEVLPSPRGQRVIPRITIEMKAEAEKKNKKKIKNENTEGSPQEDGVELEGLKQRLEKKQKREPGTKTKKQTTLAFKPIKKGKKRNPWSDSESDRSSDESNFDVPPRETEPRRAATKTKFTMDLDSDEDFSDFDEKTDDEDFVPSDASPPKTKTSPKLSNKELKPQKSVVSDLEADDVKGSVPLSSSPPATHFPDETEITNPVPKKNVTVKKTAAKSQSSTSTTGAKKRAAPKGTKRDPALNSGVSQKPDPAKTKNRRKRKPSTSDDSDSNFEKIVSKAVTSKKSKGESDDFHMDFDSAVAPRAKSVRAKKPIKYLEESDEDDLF
# ASSAY: Inhibition of human DNA topoisomerase IIalpha assessed as decatenation of kDNA at 31.5 uM after 90 mins by ethidium bromide staining
# Parameters: scale not given: the % may be the effect or the level left
This section presents compounds with their documented Activity values.
// note: answer is a bare numeric in %

Examples from the recorded data:
O=c1nc(SCc2ccccc2)nc(SCc2cccc(Cl)c2)[nH]1 :: 33.9
COc1cc([C@@H]2c3cc4c(cc3[C@@H](O[C@@H]3O[C@@H]5CO[C@@H](C)O[C@H]5[C@H](O)[C@H]3O)[C@H]3COC(=O)[C@H]23)OCO4)cc(OC)c1O :: 68.8
O=c1nc(SCc2ccccc2)nc(SCc2ccccc2F)[nH]1 :: 92.6

Next compound, Activity to be filled in.
[Q] Entry CC(C(C)N1CC(=O)NC(=O)C1)N1CC(=O)NC(=O)C1 (centres undefined) : reported Activity = ?
[A] 10.8

----------
# TARGET_DESC: DNA topoisomerase 2-alpha (Homo sapiens)
# ASSAY: Inhibition of human DNA topoisomerase IIalpha assessed as reduction in enzyme-catalyzed supercoiling of relaxed circular pBR322 DNA by measuring linear DNA level at 3.9 uM after 60 mins by agarose gel electrophoresis
# Design: scale not given: the % may be the effect or the level left
This section presents compounds with their documented Activity values.
// note: answer is a bare numeric in %

CC(C(C)N1CC(=O)NC(=O)C1)N1CC(=O)NC(=O)C1 (centres undefined) :: 1.7

[Q] Entry COc1cc([C@@H]2c3cc4c(cc3[C@@H](O[C@@H]3O[C@@H]5CO[C@@H](C)O[C@H]5[C@H](O)[C@H]3O)[C@H]3COC(=O)[C@H]23)OCO4)cc(OC)c1O : reported Activity = ?
[A] 12.4

[Q] Entry O=c1nc(SCc2ccccc2)nc(SCc2ccccc2F)[nH]1 : reported Activity = ?
[A] 3

[Q] Entry O=c1nc(SCc2ccccc2)nc(SCc2cccc(Cl)c2)[nH]1 : reported Activity = ?
[A] 4.4

----------
This section presents compounds with their documented logP values.
# ASSAY: Lipophilicity, log P of the compound
# Type: physicochemical
# CONDITION_PARAMETERS: octanol/water
I only need the number, thanks.

O=c1nc(SCc2ccccc2)nc(SCc2cccc(Cl)c2)[nH]1 :: 3.3

[Q] Entry O=c1nc(SCc2ccccc2)nc(SCc2ccccc2F)[nH]1 : reported logP = ?
[A] 2.7

[Q] Entry O=c1nc(SCc2ccccc2)nc(SCc2ccccc2Cl)[nH]1 : reported logP = ?
[A] 3.3
